// values below are reported IC50
- SYSTEM UNDER TEST: recombinant wild-type HuPP5 (Homo sapiens, UniProt P53041)
- Construct: 6xHis (N); made in house; host or cells: Escherichia coli BL21(DE3)pLysS, pET43.1b
- Sequence (P53041 whole entry): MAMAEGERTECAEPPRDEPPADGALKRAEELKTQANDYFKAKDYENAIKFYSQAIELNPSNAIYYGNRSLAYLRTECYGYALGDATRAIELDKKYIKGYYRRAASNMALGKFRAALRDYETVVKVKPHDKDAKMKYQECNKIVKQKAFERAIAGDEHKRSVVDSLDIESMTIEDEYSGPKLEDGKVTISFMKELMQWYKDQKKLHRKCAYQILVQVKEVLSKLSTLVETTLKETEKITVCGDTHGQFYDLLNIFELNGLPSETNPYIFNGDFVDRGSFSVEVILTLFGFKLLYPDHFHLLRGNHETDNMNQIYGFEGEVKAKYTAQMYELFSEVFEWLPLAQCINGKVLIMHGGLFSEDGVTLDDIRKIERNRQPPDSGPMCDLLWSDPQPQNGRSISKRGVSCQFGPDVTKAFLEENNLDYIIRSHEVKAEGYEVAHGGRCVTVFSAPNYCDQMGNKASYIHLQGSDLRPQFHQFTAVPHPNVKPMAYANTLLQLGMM
- ASSAY SUMMARY: Inhibition of recombinant wild-type HuPP5 phosphatase activity (p-NPP substrate)
- Assay type: biochemical
- APPLIED CONDITIONS: mean ± S.D., three independent experiments
Write the number in µM without appending the unit.

The following compounds have reported results that may help.
Task item: Give IC50 (recombinant wild-type HuPP5 (Homo sapiens, UniProt P53041)) of the following compound: C[C@@]12C(=O)OC(=O)[C@]1(C)[C@H]1CC[C@@H]2O1
Reply: 0.82

Task item: Give IC50 (recombinant wild-type HuPP5 (Homo sapiens, UniProt P53041)) of the following compound: O=C1OC(=O)[C@H]2[C@@H]1[C@@H]1CC[C@H]2O1
Reply: 4.18

***
Task item: Give IC50 (recombinant wild-type HuPP5 (Homo sapiens, UniProt P53041)) of the following compound: O=C(O)[C@@H]1[C@H](C(=O)O)[C@H]2CC[C@@H]1O2 [Endothall, endothall]
Reply: 3.64
